- Experimental details: gradient 5% acetonitrile 3 min, to 50% in 2 min, to 85% in 15 min, held 3 min, 100 µL/min
- Measurement conditions: column: Zorbax Extend-C18 2.1 x 50 mm; eluents: water / acetonitrile, 0.1% formic acid
Readout label: RP-LC retention time (s)

CCC(=O)n1nc(C)c(S(=O)(=O)N2CCC(C)CC2)c1C :: 1150
CCCCNC(=O)C1CCN(C(=O)c2cc3ccsc3n2Cc2cccc(OC)c2)CC1 :: 948
O=C(c1nnc(-c2ccc(S(=O)(=O)N3CCCC3)cc2)o1)N1CCCC1 :: 764
CCOC(=O)c1c(C)n(C)c2ccc(OCC(O)CN3CCCCC3)cc12 (stereo not given) :: 643
O=C(CCC1CCCC1)N1CCN(c2nnc3c(Cl)cccn23)CC1 :: 691
CSc1cccc(NC(=O)NC2CCN(c3ccc(C)c(C)c3)C2=O)c1 (stereo not given) :: 929

[I] CCN1CCCC1CNC(=O)c1nc(CCS(=O)(=O)c2ccc(OC)cc2)no1 (stereo not given)
[II] Cc1cc(C)n(-c2cc(Nc3ccc(F)cc3)ncn2)n1
Two entries are listed, I and II . Which one carries the higher RP-LC retention time? Answer by stating the label of the chosen item.
II

* * *

- Experimental details: gradient 5% acetonitrile 3 min, to 50% in 2 min, to 85% in 15 min, held 3 min, 100 µL/min
- Measurement conditions: column: Zorbax Extend-C18 2.1 x 50 mm; eluents: water / acetonitrile, 0.1% formic acid
Readout label: RP-LC retention time (s)

O=C(Nc1ccccc1NC(=O)C1CC(=O)N(c2ccc(F)cc2)C1)c1ccsc1 (stereo not given) :: 739
Cc1cc(S(=O)(=O)N2CC(N(Cc3ccncc3)CC3CC3)C2)ccc1F :: 709
Cc1c(C(=O)N2CCCC2)cc(-c2ccc(F)cc2)n1C :: 889
CCC(C)NC(=O)c1cc(=O)[nH]c2ccccc12 (stereo not given) :: 645
CCCn1cc(CCNS(=O)(=O)c2ccc3c(c2)CCC3)c2cccnc21 :: 938
O=C(Nc1ccccc1Cl)C1CCCN(C(=O)Cc2cccc3ccccc23)C1 (stereo not given) :: 995
COc1ccc(-n2ncc3c(=O)n(Cc4nc(-c5cc(OC)c(OC)c(OC)c5)no4)cnc32)cc1 :: 927
Cc1ccc(NC(=O)C2CCN(C(=O)c3ncn4c3COC(c3ccc(F)cc3)C4)CC2)c(C)c1 (stereo not given) :: 832
O=C(NC1CCCC1)C1CCCCN1S(=O)(=O)c1ccc(Br)cc1 (stereo not given) :: 1040
CCc1cc(C2CCCN2C(=O)Nc2ccc(OC)cc2OC)on1 (stereo not given) :: 829

* * *

- Experimental details: gradient 5% acetonitrile 3 min, to 50% in 2 min, to 85% in 15 min, held 3 min, 100 µL/min
- Measurement conditions: column: Zorbax Extend-C18 2.1 x 50 mm; eluents: water / acetonitrile, 0.1% formic acid
Readout label: RP-LC retention time (s)

O=C(COC(=O)c1ccco1)Nc1ccc2c(c1)OCO2 :: 688
O=C(NCc1ccccn1)C1CCCN(c2nccnc2Sc2ccccc2)C1 (stereo not given) :: 687
CN(C)CCn1nnc2cc(-c3noc(-c4cccc(F)c4)n3)ccc21 :: 676
Cc1c(C(=O)N2CCCC(C)C2)cnn1-c1ccc(-c2nc(C(C)C)no2)cn1 (stereo not given) :: 1120

[I] COc1ccc2c(C)c(CCC(=O)N[C@H](CC(C)C)C(=O)O)c(=O)oc2c1C
[II] CC(C)OC(=O)COC(=O)c1cn(-c2cccc(Cl)c2)c(=O)c2ccccc12
Please indicate which entry, I or II , has the lower recorded RP-LC retention time value. Output the label that corresponds to your choice.
I
(I: 781 s, II: 1140 s)

[A] Cc1nc2cccnc2n1C1CCN(C(=O)Nc2cccc(F)c2)CC1
[B] CCN(CCN(C)C)C(=O)c1c2c(nc3ccccc13)C(=O)N(C1CCCCC1)C2
// returns A or B , whichever has the lower RP-LC retention time Answer by quoting the chosen item's label.
B
(B: 601 s, A: 947 s)
